B1: ZNF207 (parent)
chain: FQPQPVQPQQGYIPPMAQPGLPPV

- Variants of: B1
- Assay summary: protein stability index of a GFP-peptide fusion (GPS, HEK-293T) (PSI 1-6); higher = more stable;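 further: lentivirally expressed fusions sorted by FACS into six bins by GFP to DsRed ratio, PSI derived from sequencing read proportions per bin multiplied by bin number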
- Recorded conditions: c terminus: a fixed tail appended
This listing pairs variants with measured protein stability index.

{"columns": ["Variant", "protein stability index"],
 "data": [
  ["Q9F", 2.34],
  ["A17R", 3.15],
  ["F1L", 4.03],
  ["P15E", 2.96],
  ["G11A", 3.03],
  ["Y12C", 3.55],
  ["Q4F", 2.42],
  ["P8H", 2.89],
  ["P8A", 3.27],
  ["P5K", 3.17],
  ["Q9V", 3.61],
  ["V6G", 3.1],
  ["A17C", 3.27],
  ["G20M", 2.75],
  ["L21W", 2.26],
  ["P15F", 2.3],
  ["G20E", 3.23],
  ["A17W", 1.93],
  ["A17V", 2.96],
  ["L21D", 4.12],
  ["Q9H", 3.24],
  ["Q9N", 2.72]
]}
